System: HCT-116 colon
Assay: NCI-60 one-dose screen, 48 h (100 = growth as untreated, 0 = no growth, -100 = all killed)
Conditions: 10 µM unless noted
The panel holds about 83,000 compounds, 20% with a hit somewhere; the sample as a whole holds those more often. Activity calls are given as the source filed them. How the source made its calls: active means growth percent below 10; inactive means the rest.
propertyName: growth

[
  {
    "molecule": "Cc1cc(Nc2ccc(Cl)c(Cl)c2)nc(N)n1",
    "growth": "86.4% (inactive)"
  },
  {
    "molecule": "O=C(O)c1ccc(-c2nn(-c3ccc(C(=O)O)cc3)cc2/C=N/Nc2c(F)c(F)cc(F)c2F)cc1",
    "growth": "100% (inactive)"
  },
  {
    "molecule": "O=S1(=O)N(CCNc2nccc(-c3c(-c4cccc(O)c4)nc4sccn34)n2)CCN1Cc1ccccc1",
    "growth": "45.9% (inactive)"
  },
  {
    "molecule": "CC(C)NCC(O)COc1ccc(CC(N)=O)cc1 (stereo not given)",
    "growth": "99.2% (inactive)"
  },
  {
    "molecule": "O=C1OC(c2ccc(-c3ccccc3)cc2)=C/C1=C/C=C/c1ccccc1",
    "growth": "88% (inactive)"
  },
  {
    "molecule": "COc1ccc2c(c1)nnc1c3cccnc3[nH]c21",
    "growth": "-74% (active)"
  },
  {
    "molecule": "Cc1cc(SCc2ccc(Cl)cc2Cl)nc(SCc2ccc(Cl)cc2Cl)n1",
    "growth": "95.9% (inactive)"
  },
  {
    "molecule": "c1nc(SC2=NCCN2)c2[nH]cnc2n1",
    "growth": "37% (inactive)"
  }
]

Lab book: growth of COc1cc2c(cc1OCCCCC(=O)Nc1ccc(-c3nc4ccccc4s3)cc1)N=C[C@@H]1CCCN1C2=O noted as 5.56% (active)

Please fill in: growth reported for CC(=O)c1cc2c(N)c(C(=O)Nc3cccc(Cl)c3)sc2nc1C = 102% (inactive)

----------
Each record here notes measured growth.
Test system: 786-0 renal
Assay: NCI-60 one-dose screen, 48 h (100 = growth as untreated, 0 = no growth, -100 = all killed)
Settings: 10 µM unless noted
About 83,000 compounds went through this panel and 20% of them were active in at least one assay; those are over-represented in the sample as a whole.
The response must be a number in % with no trailing unit.

Worked examples, 4 molecules total:
[
  {
    "sampleSmiles": "C/C(=N/O)c1ccc(NC(=O)Cn2nc(-c3ccc(Cl)cc3)nc2N)cc1",
    "testedOn": "786-0 renal",
    "unitTag": "%",
    "observedMeasurement": 109
  },
  {
    "sampleSmiles": "O=C(O)c1cc2ccccc2cc1Nc1ccccc1",
    "testedOn": "786-0 renal",
    "unitTag": "%",
    "observedMeasurement": 101
  },
  {
    "sampleSmiles": "CCCC(=O)Oc1ccc(/C(=C(\\C)c2ccc(OC)cc2)c2ccc(OCCN3CCCCC3)cc2)cc1",
    "testedOn": "786-0 renal",
    "unitTag": "%",
    "observedMeasurement": 67.1
  },
  {
    "sampleSmiles": "O=[N+]([O-])c1cccc(C2c3ccccc3Oc3ccccc32)c1",
    "testedOn": "786-0 renal",
    "unitTag": "%",
    "observedMeasurement": 99.9
  }
]

Now examine the next entry.
The reported value for C=C1C(=O)O[C@H]2[C@H]1CC/C(C(=O)NCCOCCOCC(=O)Nc1ccc(OC)c(C(N)=O)c1O)=C\CC[C@@]1(C)O[C@@H]21 in terms of growth is 94.3
